biological target: Gamma-aminobutyric acid receptor subunit alpha-6/beta-3/gamma-2 (Rattus norvegicus) (UniProt P18508+P30191+P63079); experiment: Positive allosteric modulation of rat recombinant GABAA alpha6beta3alpha6-gamma2beta3 receptor expressed in Xenopus laevis oocytes assessed as maximal efficacy at -80 mV holding potential at 10 nM in presence of GABA EC1 to 1.5 by two-electrode voltage-clamp assay; type: cell-based; conditions: Oocyte
quantity: Efficacy (%)
Numbers only; they are read as %.

Please review the entries below; each comes with its answer.
# item smiles, Efficacy, %
rows = [
    ("COc1ccc(-n2nc3c4ccc(Br)cc4[nH]cc-3c2=O)cc1", 33),
    ("CCc1ccc2c3nn(-c4ccc(OC)cc4)c(=O)c-3c[nH]c2c1", 21),
    ("COc1ccc(-n2nc3c4ccc(Cl)cc4[nH]cc-3c2=O)cc1", 22),
    ("COc1ccc(-n2nc3c4ccc(C(C)=O)cc4[nH]cc-3c2=O)cc1", 27),
    ("C#Cc1ccc2c3nn(-c4ccc(OC)cc4)c(=O)c-3c[nH]c2c1", 27),
    ("COc1ccc(-n2nc3c4ccccc4[nH]cc-3c2=O)cc1", 8),
]

Here is another compound to look at.
[in] Can you share its Efficacy? I mean this compound: `COc1ccc(-n2nc3c4ccc(F)cc4[nH]cc-3c2=O)cc1`
[out] 28

###

Listed molecules paired with reported Efficacy
molecular target: Gamma-aminobutyric acid receptor subunit alpha-6/beta-3/gamma-2 (Rattus norvegicus) (UniProt P18508+P30191+P63079); assay: Positive allosteric modulation of rat recombinant GABAA alpha6beta3alpha6-gamma2beta3 receptor expressed in Xenopus laevis oocytes assessed as maximal efficacy at -80 mV holding potential at 30 nM in presence of GABA EC1 to 1.5 by two-electrode voltage-clamp assay; assay type: cell-based; conditions: Oocyte
Numbers only; they are read as %.

Please review the entries below; each comes with its answer.
# item smiles, Efficacy [%]
records = [
    ("COc1ccc(-n2nc3c4ccccc4[nH]cc-3c2=O)cc1", 19),
    ("C#Cc1ccc2c3nn(-c4ccc(OC)cc4)c(=O)c-3c[nH]c2c1", 39),
    ("CCc1ccc2c3nn(-c4ccc(OC)cc4)c(=O)c-3c[nH]c2c1", 29),
]

Here is another molecule to look at.
[in] Can you share its Efficacy? I mean this molecule: `COc1ccc(-n2nc3c4ccc(C(C)=O)cc4[nH]cc-3c2=O)cc1`
[out] 31

###

Listed molecules paired with reported Efficacy
biological target: Gamma-aminobutyric acid receptor subunit alpha-6/beta-3/gamma-2 (Rattus norvegicus) (UniProt P18508+P30191+P63079); test: Positive allosteric modulation of rat recombinant GABAA alpha6beta3alpha6-gamma2beta3 receptor expressed in Xenopus laevis oocytes assessed as maximal efficacy at -80 mV holding potential at 30 uM in presence of GABA EC1 to 1.5 by two-electrode voltage-clamp assay; type: cell-based; conditions: Oocyte, filed as positive allosteric modulator
Numbers only; they are read as %.

# item smiles, Efficacy [%]
measured = [
    ("COc1ccc(-n2nc3c4ccc(C(C)=O)cc4[nH]cc-3c2=O)cc1", 426),
    ("C#Cc1ccc2c3nn(-c4ccc(OC)cc4)c(=O)c-3c[nH]c2c1", 732),
    ("COc1ccc(-n2nc3c4ccc(C(F)(F)F)cc4[nH]cc-3c2=O)cc1", 1370),
    ("COc1ccc(-n2nc3c4ccccc4[nH]cc-3c2=O)cc1", 1360),
    ("COc1ccc(-n2nc3c4ccc(C)cc4[nH]cc-3c2=O)cc1", 1310),
    ("COc1ccc(-n2nc3c4ccc(Br)cc4[nH]cc-3c2=O)cc1", 570),
    ("COc1ccc(-n2nc3c4ccc(OC)cc4[nH]cc-3c2=O)cc1", 702),
    ("COc1ccc(-n2nc3c4ccc(Cl)cc4[nH]cc-3c2=O)cc1", 703),
    ("COc1ccc(-n2nc3c4ccc(F)cc4[nH]cc-3c2=O)cc1", 385),
]

Here is another molecule to look at.
[in] Can you share its Efficacy? I mean this molecule: `CCc1ccc2c3nn(-c4ccc(OC)cc4)c(=O)c-3c[nH]c2c1`
[out] 1940
